Read-out: Cytochrome P450 7A1 (Homo sapiens) (UniProt P22680)
Test: LTEA_HepaRG_CYP7A1: Life Technologies and Expression Analysis (LTEA) Assay for Cytochrome P450 7A1 (CYP7A1) using HepaRG (AID 2283496)
Details: mRNA level, 48 h; actives raise or lower the signal
Active and inactive are the calls of the source. Rule for the calls: active = hit-call score of the fitted dose curve at least 0.9, where 1 is the maximum; inactive = score below 0.9.
measure-name: AC50

Example entries begin here.
[
  {
    "compound": "Nc1cc(Cl)cc(C(=O)O)c1Cl",
    "observed-result": "inactive"
  },
  {
    "compound": "CCCCCCCCOC(=O)c1ccc(C(=O)OCCCCCCCC)c(C(=O)OCCCCCCCC)c1",
    "observed-result": "inactive"
  },
  {
    "compound": "Clc1ccccc1Cl",
    "observed-result": "inactive"
  },
  {
    "compound": "CC(C)(O)c1cnn2c(-c3ccc(F)c(-c4c(F)cccc4C#N)c3)cnc2n1",
    "observed-result": "4.14 µM (active)"
  },
  {
    "compound": "CCC12COCN1COC2",
    "observed-result": "inactive"
  },
  {
    "compound": "CCN(CC)CCO",
    "observed-result": "inactive"
  },
  {
    "compound": "c1ccc(C2CO2)cc1 (stereo not given)",
    "observed-result": "inactive"
  },
  {
    "compound": "ClC1=C(Cl)[C@]2(Cl)[C@H]3[C@H]([C@@H]4C=C[C@H]3C4)[C@@]1(Cl)C2(Cl)Cl",
    "observed-result": "19.4 µM (active)"
  }
]

Inquiry: Please report AC50 for the following compound: OCCOCCO
Reply text: inactive

Inquiry: Please list AC50 recorded for the compound O=C(Nc1ccccc1)c1ccccc1I
Reply text: 28.9 µM (active)

Inquiry: Report AC50, nothing else, for this compound: c1ccc(NNc2ccccc2)cc1
Reply text: inactive

Inquiry: For the compound Clc1ccc(C(c2ccc(Cl)cc2)C(Cl)Cl)cc1 , report AC50.
Reply text: 22.5 µM (active)

Inquiry: Specify measured AC50 for Cc1ccc(N)cc1 .
Reply text: inactive

Inquiry: Given the compound Brc1ccc(Oc2ccccc2)cc1 , write its reported AC50.
Reply text: inactive

Inquiry: Please look at this compound and report its AC50: C=CCc1ccc2c(c1)OCO2
Reply text: inactive

---

Read-out: Interleukin-1 alpha (IL1a), IL1A (gene 3552)
Assay: BSK_LPS_IL1a: BioMAP Diversity Plus: LPS Assay for Interleukin-1 alpha (IL1a) Biomarker Activity (AID 2283080)
Settings: primary human HUVEC with PBMC; actives raise or lower the signal
Active and inactive are the calls of the source. Rule for the calls: active = hit-call score of the fitted dose curve at least 0.9, where 1 is the maximum; inactive = score below 0.9.
Your reply should match one of these outcome classes. active, inactive

Inquiry: Tell me the assay call for Cn1cc(-c2ccccc2)c(=O)c(-c2cccc(C(F)(F)F)c2)c1 please.
Reply text: inactive

Inquiry: For O=C1CCCO1 , what call appears in the results of this test?
Reply text: inactive

Inquiry: For COC(=O)c1ccccc1N , what call appears in the results of this test?
Reply text: inactive

Inquiry: Hi, do you know how CCN(CC)N=O came out in this test?
Reply text: inactive

Inquiry: Write down the call the test reported for this molecule. Item: Nc1cc(Cl)cc(C(=O)O)c1Cl
Reply text: inactive

Inquiry: Dear all, I need the recorded test outcome for c1ccc(NNc2ccccc2)cc1 , thank you.
Reply text: inactive

Inquiry: Query: recorded result category for CC(C)(O)c1cnn2c(-c3ccc(F)c(-c4c(F)cccc4C#N)c3)cnc2n1 in this test
Reply text: inactive

Inquiry: Field: outcome | Entry: OCCCl
Reply text: inactive

Inquiry: Which result was noted for this molecule in the test: Cc1ccc(N)cc1
Reply text: inactive

Inquiry: Look up the recorded call for ClC1=C(Cl)C2(Cl)C3C(Cl)C=CC3C1(Cl)C2(Cl)Cl (stereo not given) in this test.
Reply text: active

Inquiry: Record request — test call for CCN(CC)CCO
Reply text: inactive

Inquiry: How was COc1cc(C=O)cc2c1[C@H](COC(N)=O)[C@]1(OC(C)=O)ON2C[C@H]2[C@@H]1N2C(C)=O classified in this test?
Reply text: active

Inquiry: So what was the verdict on Oc1ccccc1Cl in this test?
Reply text: inactive

Inquiry: Any idea what this test logged for Cc1cccc(N)c1N ?
Reply text: inactive

Inquiry: Lab log entry: O=P(OCCCl)(OCCCl)OCCCl — outcome as called in the assay?
Reply text: inactive

Inquiry: For ClCCOCCCl , what call appears in the results of this test?
Reply text: inactive

Inquiry: Dear all, I need the recorded test outcome for CC(C)(C)C(O)(CCc1ccc(Cl)cc1)Cn1cncn1 (stereo not given) , thank you.
Reply text: inactive

Inquiry: Check the results log: what was the call for Cc1ccc(N=C=O)cc1N=C=O ?
Reply text: inactive

Inquiry: Returns: the outcome recorded for CC(C)N(Cc1ccccc1)C(=O)C(C)(C)C in this assay.
Reply text: inactive

Inquiry: Dear colleague, could you share the recorded outcome for N#CC(Br)(Br)C(N)=O when you have a moment?
Reply text: inactive

Inquiry: # outcome recorded in this test, key = CCCCCCCCOC(=O)c1ccc(C(=O)OCCCCCCCC)c(C(=O)OCCCCCCCC)c1
Reply text: inactive

Inquiry: Name the outcome recorded for COC(=O)Nc1nc2ccccc2[nH]1 in the assay.
Reply text: inactive

Inquiry: Which outcome was entered for the molecule CNC(=O)Oc1cccc2c1OC(C)(C)C2 in this test?
Reply text: inactive

Inquiry: Please let me know the test result on file for ClC1=C(Cl)[C@]2(Cl)[C@H]3[C@H]([C@@H]4C=C[C@H]3C4)[C@@]1(Cl)C2(Cl)Cl .
Reply text: active

Inquiry: Which outcome was entered for the molecule c1ccc(N=Nc2ccccc2)cc1 in this test?
Reply text: inactive

Inquiry: For c1ccc2c(c1)-c1cccc3cccc-2c13 , what call appears in the results of this test?
Reply text: inactive

Inquiry: Lab log entry: CC(C)COC(=O)c1ccccc1C(=O)OCC(C)C — outcome as called in the assay?
Reply text: inactive

Inquiry: Recorded test outcome, item [Cl-].[Cl-].[Hg+2]
Reply text: inactive

Inquiry: For COP(=S)(OC)SCN1C(=O)c2ccccc2C1=O , which call appears in the assay record?
Reply text: inactive

Inquiry: For Clc1ccc(C(c2ccc(Cl)cc2)C(Cl)(Cl)Cl)cc1 , what call appears in the results of this test?
Reply text: active

---

Experiment: BSK_KF3CT_SRB: Viability Assessment in the BioMAP Diversity Plus: KF3CT Assay (AID 2283069);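 note: total protein by sulforhodamine B staining as a cytotoxicity measure; read 24 h after compound addition; fitted for both signal gain and loss against DMSO baseline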
Conditions: primary human keratinocytes with fibroblasts
Active and inactive are the calls of the source. Rule for the calls: active = hit-call score of the fitted dose curve at least 0.9, where 1 is the maximum; inactive = score below 0.9.
Please answer using one outcome listed in active, inactive

Inquiry: Recorded test outcome, item O=P(OCCCl)(OCCCl)OCCCl
Reply text: inactive

Inquiry: # lookup: test call for O=Cc1ccco1
Reply text: inactive

Inquiry: Per the assay record, what outcome was assigned to C[N+](C)(C)CC1CO1 (stereo not given) ?
Reply text: inactive

Inquiry: Identify the outcome logged in this assay for the compound shown: Oc1ccccc1Cl
Reply text: inactive

Inquiry: For Cc1cccc(N)c1N , which call appears in the assay record?
Reply text: inactive

Inquiry: Fill in: this test's call for Cc1ccc(N)cc1 is ___
Reply text: inactive

Inquiry: What outcome does the record of this test show for CN(C)C(=O)Nc1ccc(Cl)cc1 ?
Reply text: inactive

Inquiry: Returns: the outcome recorded for O=C(O)C1C2CCC(O2)C1C(=O)O (stereo not given) in this assay.
Reply text: inactive

Inquiry: Field: outcome | Entry: ClC1=C(Cl)C2(Cl)C3C(Cl)C=CC3C1(Cl)C2(Cl)Cl (stereo not given)
Reply text: active

Inquiry: Record request — test call for c1ccc(N=Nc2ccccc2)cc1
Reply text: inactive

Inquiry: Name the outcome recorded for CS(=O)(=O)NC(=O)c1cc(Oc2ccc(C(F)(F)F)cc2Cl)ccc1[N+](=O)[O-] in the assay.
Reply text: inactive

Inquiry: What was the test verdict on CCC[CH2][Sn]([Cl])([CH2]CCC)[CH2]CCC ?
Reply text: active

Inquiry: Just curious, what result did N#CC(Br)Br get here?
Reply text: inactive

Inquiry: Entry CC(C)(C)OOC(=O)c1ccccc1 : call = ?
Reply text: inactive

Inquiry: Each compound tested received a call. Report the one for CCCCCCCCCCCCCN1CC(C)OC(C)C1 (stereo not given) .
Reply text: inactive

---

Assay: ATG_BRE_CIS: Attagene CIS-FACTORIAL HepG2 Assay for human Bone Morphogenetic Protein (BMP) Response Element (BRE) (AID 2282933)
Conditions: HepG2 BMP response element reporter, Attagene transcription factor profiling; actives raise or lower the signal
Calls of active or inactive are those of the source. Rule for the calls: active = hit-call score of the fitted dose curve at least 0.9, where 1 is the maximum; inactive = score below 0.9.
Tick one outcome: class 1 = active, class 0 = inactive

Inquiry: Test call for this molecule, please: CN(C)c1ccccc1
Reply text: class 0

Inquiry: How did this test come out for Oc1ccc2ccc3cccc4ccc1c2c34 ?
Reply text: class 0

Inquiry: Fill in: this test's call for C1=Cc2cccc3cccc1c23 is ___
Reply text: class 0

Inquiry: Outcome? O=[N+]([O-])c1ccc(Oc2ccc(Cl)cc2Cl)cc1
Reply text: class 1

Inquiry: Given COC(=O)Nc1nc2ccccc2[nH]1 , state the outcome it received in this test.
Reply text: class 0

Inquiry: Hi, do you know how CC(C)N(Cc1ccccc1)C(=O)C(C)(C)C came out in this test?
Reply text: class 0

Inquiry: Could you please tell me the result logged for CCCSC(=O)N(CCC)CCC in this assay?
Reply text: class 0

Inquiry: I'd appreciate the recorded outcome for OCCCBr from this test.
Reply text: class 0

Inquiry: Status in this test for N#CC(Br)Br ?
Reply text: class 0

Inquiry: For CC(C)COC(=O)c1ccccc1C(=O)OCC(C)C , what call appears in the results of this test?
Reply text: class 1

Inquiry: Write down the call the test reported for this molecule. Item: Brc1ccc(Oc2ccccc2)cc1
Reply text: class 0

Inquiry: What classification did CN(C)[C@@H]1C(=O)C(C(N)=O)=C(O)[C@@]2(O)C(=O)C3=C(O)c4c(O)cccc4[C@@](C)(O)[C@H]3C[C@@H]12 end up with in this test?
Reply text: class 0

Inquiry: Write down the call the test reported for this molecule. Item: Clc1ccc(Cl)c(Cl)c1
Reply text: class 0

Inquiry: Check the results log: what was the call for CCOc1cccc(C2(N3CCN(c4ccccc4)CC3)CCC(C)CC2)c1 (centres undefined) ?
Reply text: class 0
